biological target: MAGL (Mus musculus, UniProt O35678); construct: Proteomes (mouse brain membrane fraction or cell lysates); from tissue; host or cells: mouse brain membrane fraction or cell lysates; assay: Mouse brain proteomes from inhibitor treated mice, MAGL inhibition; format: in vivo; details: 5 mg/kg oral gavage, C57Bl/6J mouse brain, 4 h following administration; read-out: MAGL % inh. 5 mg/kg (mouse)
Sequence (O35678 whole entry): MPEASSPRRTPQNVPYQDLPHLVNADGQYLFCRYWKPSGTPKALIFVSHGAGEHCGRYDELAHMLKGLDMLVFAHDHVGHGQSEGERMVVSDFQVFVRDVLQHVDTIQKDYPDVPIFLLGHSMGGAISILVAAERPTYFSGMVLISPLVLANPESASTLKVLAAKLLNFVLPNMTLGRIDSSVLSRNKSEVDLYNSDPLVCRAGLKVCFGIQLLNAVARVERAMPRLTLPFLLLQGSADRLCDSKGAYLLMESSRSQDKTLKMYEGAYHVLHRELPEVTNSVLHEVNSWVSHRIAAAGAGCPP
READOUT: inhibition at 5 mg/kg

Answered cases to consult:
{"COMPOUND": "O=C(O)C1CCN(c2cc(S(F)(F)(F)(F)F)ccc2CN2CCN(C(=O)OC(C(F)(F)F)C(F)(F)F)CC2)CC1", "STUDY TARGET": "MAGL (Mus musculus, UniProt O35678)", "READOUT VALUE": "≥ 75%"}
{"COMPOUND": "O=C(O)C1CCN(C(=O)c2cc(C(F)(F)F)ccc2CN2CCN(C(=O)OC(C(F)(F)F)C(F)(F)F)CC2)CC1", "STUDY TARGET": "MAGL (Mus musculus, UniProt O35678)", "READOUT VALUE": "0 to 25%"}
{"COMPOUND": "CC1(C(=O)O)CCN(c2cc(Cl)ccc2CN2CCN(C(=O)OC(C(F)(F)F)C(F)(F)F)CC2)CC1", "STUDY TARGET": "MAGL (Mus musculus, UniProt O35678)", "READOUT VALUE": "≥ 75%"}
{"COMPOUND": "O=C(O)CN1CCC2(CC1)CN(c1cc(C(F)(F)F)ccc1CN1CCN(C(=O)OC(C(F)(F)F)C(F)(F)F)CC1)C2", "STUDY TARGET": "MAGL (Mus musculus, UniProt O35678)", "READOUT VALUE": "0 to 25%"}
{"COMPOUND": "O=C(OC(C(F)(F)F)C(F)(F)F)N1CCN(Cc2ccc(C(F)(F)F)cc2C2(C(=O)O)CCCC2)CC1", "STUDY TARGET": "MAGL (Mus musculus, UniProt O35678)", "READOUT VALUE": "≥ 75%"}
{"COMPOUND": "O=C(O)CN1CC2CC1CN2c1cc(C(F)(F)F)ccc1CN1CCN(C(=O)OC(C(F)(F)F)C(F)(F)F)CC1 (stereo not shown)", "STUDY TARGET": "MAGL (Mus musculus, UniProt O35678)", "READOUT VALUE": "0 to 25%"}

### Prompt What does the record list as inhibition at 5 mg/kg for O=C(O)CN1CCC2(CC1)CCN(c1cc(C(F)(F)F)ccc1CN1CCN(C(=O)OC(C(F)(F)F)C(F)(F)F)CC1)C2 ?
### Response 0 to 25%

###

Measured inhibition at 1 µM by item
Target: ABHD6 (Mus musculus)
Construct: Proteomes (mouse brain membrane fraction or cell lysates); from tissue; host or cells: mouse brain membrane fraction or cell lysates
Sequence (Q8R2Y0 1-336): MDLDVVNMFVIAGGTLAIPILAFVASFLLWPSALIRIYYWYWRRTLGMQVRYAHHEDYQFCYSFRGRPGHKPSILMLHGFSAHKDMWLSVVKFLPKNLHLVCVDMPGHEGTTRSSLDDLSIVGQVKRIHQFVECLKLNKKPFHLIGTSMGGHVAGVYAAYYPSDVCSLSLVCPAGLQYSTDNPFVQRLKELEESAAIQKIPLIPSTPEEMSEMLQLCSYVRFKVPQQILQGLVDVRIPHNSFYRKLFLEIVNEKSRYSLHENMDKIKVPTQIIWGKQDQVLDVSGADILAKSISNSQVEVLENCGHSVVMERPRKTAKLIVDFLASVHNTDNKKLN
Assay: In vitro competitive activity-based protein profiling (mouse), ABHD6
Type: biochemical
Conditions: 1 μM inhibitor, mouse brain membrane fraction or cell lysates; read-out: ABHD6 % inh. 1 μM (mouse)

{"MOLECULE": "O=C(OC(C(F)(F)F)C(F)(F)F)N1CCN(Cc2cc(C(F)(F)F)cc(C3(C(=O)O)CCCC3)c2)CC1 [Example 1]", "STUDY TARGET": "ABHD6 (Mus musculus)", "inhibition at 1 µM": "≥ 75%"}
{"MOLECULE": "C#Cc1ccc(CN2CCN(C(=O)OC(C(F)(F)F)C(F)(F)F)CC2)c(N2CCC(C(=O)O)CC2)c1 [Example 82]", "STUDY TARGET": "ABHD6 (Mus musculus)", "inhibition at 1 µM": "50 to 75%"}
{"MOLECULE": "Cc1ccc(CN2CCN(C(=O)OC(C(F)(F)F)C(F)(F)F)CC2)c(N2CCC(C(=O)O)CC2)c1F [Example 59]", "STUDY TARGET": "ABHD6 (Mus musculus)", "inhibition at 1 µM": "≥ 75%"}
{"MOLECULE": "CC(C)(C(=O)O)N1CC2CN(c3cc(C(F)(F)F)ccc3CN3CCN(C(=O)OC(C(F)(F)F)C(F)(F)F)CC3)CC2C1 (stereo not shown) [Example 16]", "STUDY TARGET": "ABHD6 (Mus musculus)", "inhibition at 1 µM": "0 to 25%"}
{"MOLECULE": "CC1(C(=O)O)CCN(c2cc(CN3CCN(C(=O)OC(C(F)(F)F)C(F)(F)F)CC3)cc(C(F)(F)F)c2)CC1 [Example 29]", "STUDY TARGET": "ABHD6 (Mus musculus)", "inhibition at 1 µM": "≥ 75%"}
{"MOLECULE": "O=C(O)C1CN(c2cc(C(F)(F)F)ccc2CN2CCN(C(=O)OC(C(F)(F)F)C(F)(F)F)CC2)C1 [Example 79]", "STUDY TARGET": "ABHD6 (Mus musculus)", "inhibition at 1 µM": "≥ 75%"}

# evaluate next
### Prompt Lab note: need inhibition at 1 µM with ABHD6 (Mus musculus) for entry CC1(C(=O)O)CCCN(c2cc(C(F)(F)F)ccc2CN2CCN(C(=O)OC(C(F)(F)F)C(F)(F)F)CC2)C1 (stereo not shown) [Example 54] , please look it up.
### Response 50 to 75%
